# test_method_notes: Aqueous solubility of the compound
# Type: physicochemical
Assignment: determine reported solubility for the given compounds.
State just the number; it will be interpreted in µM.

Query string: Report solubility for O=C(Nc1ccc(Oc2cc(NC(=O)C3CC3)ncn2)cc1)Nc1ccc(CN2CCn3ccnc3C2)c(C(F)(F)F)c1 please.
Result string: 3

Query string: Report solubility for CNc1nc(OCC2CCC2)nc2c1ncn2Cc1c(F)cccc1F please.
Result string: 4

Query string: Report solubility for CN(Cc1ccc2nccn2c1)c1nnc(-c2ccc(-c3ccccc3Cl)nc2)o1 please.
Result string: 10

Query string: Report solubility for O=S(=O)(c1ccc(Nc2ncc(N3CCOCC3)c(Nc3ccccc3)n2)cc1)N1CCCCC1 please.
Result string: 0.6

Query string: Report solubility for COc1cc2c(Nc3cnc(OCCCC4CCCC4)nc3)ncnc2cc1OCCCN1CCCCC1 please.
Result string: 130

Query string: Report solubility for COc1cc2c(Nc3cnc(NC(=O)c4cccn4C)nc3)ncnc2cc1OCCCNC1CCCC1 please.
Result string: 1000

Query string: Report solubility for CN(Cc1ccc2nccn2c1)c1nnc(-c2ncc(C(F)(F)F)cc2Cl)o1 please.
Result string: 301

Query string: Report solubility for CN(Cc1ccc2nccn2c1)c1nnc(-c2ccc(OC3CCCC3)cc2)o1 please.
Result string: 33

Query string: Report solubility for C[C@@H]1CN(c2cnc(Nc3cc(F)c(OCC4CC4)c(F)c3)nc2NC2CCOCC2)CCN1 please.
Result string: 400
